The reported measurements were obtained from paper PMC3563628.

- System Tested: T1, DFNB31_1/K206E (with Y167W) (human, UniProt Q9P202 136-224, K206E | Y167W)
- T1 construct: first PDZ domain of human DFNB31 (whirlin); predicted PDZ domain with ten amino acids added on each side
- T1 sequence: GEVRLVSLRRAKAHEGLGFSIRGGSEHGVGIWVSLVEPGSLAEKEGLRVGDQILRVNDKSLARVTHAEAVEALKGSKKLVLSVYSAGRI
- Assay Notes: other fluorescence titration; equilibrium titration of peptide into Trp-engineered PDZ domain kept constant at 3 µM, followed by intrinsic tryptophan fluorescence; 25°C, 25 mM HEPES, 150 mM NaCl, pH 7.2, 1 mM beta-mercaptoethanol
- Conditions: both partners purified
Test Readout: Kd (µM)
# unit: µM | format: bare number

Ask: Look up and report measured Kd for this entry: FTDTHL (last six residues; also called FTDTHL peptide; source: synthetic peptide, bought: GeneCust (purity >95%)) [C-terminal peptide of usher (FTDTHL)]
Reply: 111
